tested on: Human plasma (intrinsic coagulation cascade); assay: Activated Partial Thromboplastin Time (aPTT) Assay; details: concentration that causes a 50% (1.5×) increase of clot time over vehicle
Readout: aPTT (1.5x) (µM)
# value in µM; strip the unit string

Quick one: aPTT (1.5x) for O=C(O)c1ccc(NC(=O)C(CC2CCC2)c2ccc(-c3c(OC(F)F)ccc(Cl)c3F)c[n+]2[O-])cc1 (single isomer, unassigned) ? 0.75

Quick one: aPTT (1.5x) for O=C(O)c1ccc(NC(=O)C(CC2CCC2)c2ccc(-c3c(C(F)F)ccc(Cl)c3F)c[n+]2[O-])cc1F (single isomer, unassigned) ? 0.75

Quick one: aPTT (1.5x) for C[C@H]1C[C@@H]1C[C@@H](C(=O)Nc1ccc(C(=O)O)cc1)c1ccc(-c2c(OC(F)F)ccc(Cl)c2F)c[n+]1[O-] (single isomer, unassigned) ? 0.53

Quick one: aPTT (1.5x) for O=C(O)c1ccc(NC(=O)C(CC2CC(F)C2)c2ccc(-c3c(OC(F)F)ccc(Cl)c3F)c[n+]2[O-])cc1 (single isomer, unassigned) ? 1

Quick one: aPTT (1.5x) for O=C(O)c1ccc(NC(=O)[C@@H](CC2CC2)c2ccc(-c3c(C(F)F)ccc(Cl)c3F)c[n+]2[O-])cc1 (mixture of isomers) ? 0.61

* * *

tested on: Human plasma (intrinsic coagulation cascade); assay: Activated Partial Thromboplastin Time (aPTT) Assay; settings: concentration that causes a 50% (1.5×) increase of clot time over vehicle
Exercise: state measured aPTT (1.5x) for each of the compounds provided.
# value in µM; strip the unit string

Quick one: aPTT (1.5x) for O=C(O)c1ccc(NC(=O)C(CC2CC2)c2ccc(-c3c(OC(F)F)ccc(Cl)c3F)c[n+]2[O-])cc1F (single isomer, unassigned) [Example 73] ? 2.15

Quick one: aPTT (1.5x) for O=C(O)c1ccc(NC(=O)C(CC2CC2CF)c2ccc(-c3c(C(F)F)ccc(Cl)c3F)c[n+]2[O-])cc1 (single isomer, unassigned) [Example 95] ? 0.43

Quick one: aPTT (1.5x) for O=C(O)c1ccc(NC(=O)C(CC2CC2C(F)(F)F)c2ccc(-c3c(C(F)F)ccc(Cl)c3F)c[n+]2[O-])cc1 (single isomer, unassigned) [Example 87] ? 0.92

Quick one: aPTT (1.5x) for O=C(O)c1ccc(NC(=O)C(CC2CC2)c2ccc(-c3c(C(F)F)ccc(Cl)c3F)c[n+]2[O-])cc1F (single isomer, unassigned) [Example 118] ? 0.66

Quick one: aPTT (1.5x) for O=C(O)c1ccc(NC(=O)[C@H](CC2CC2)c2ccc(-c3c(OC(F)F)ccc(Cl)c3F)c[n+]2[O-])cc1 (single isomer, unassigned) [Example 2] ? 1.16

Quick one: aPTT (1.5x) for O=C(O)c1ccc(NC(=O)C(C[C@H]2CC[C@H](O)CC2)c2ccc(-c3c(C(F)F)ccc(Cl)c3F)c[n+]2[O-])cc1 (single isomer, unassigned) [Example 37] ? 0.4

Quick one: aPTT (1.5x) for O=C(O)c1ccc(NC(=O)C(CC2CC2)c2ccc(-c3cc(Cl)ccc3C(F)(F)F)c[n+]2[O-])cc1 (single isomer, unassigned) [Example 25] ? 10.28

* * *

Readout: IC50 (nM)
# value in nM; strip the unit string

Query IC50 on UniProt:P03951 for `CCOC(=O)c1ccc(NC(=O)[C@H](CC2CCC2)c2ccc(-c3c(C(F)F)ccc(Cl)c3F)c[n+]2[O-])cc1` 166

Query IC50 on UniProt:P03951 for CC1CCC1CC(C(=O)Nc1ccc(C(=O)O)cc1)c1ccc(-c2c(OC(F)F)ccc(Cl)c2F)c[n+]1[O-] (single isomer, unassigned) [Example 103] 153

Query IC50 on UniProt:P03951 for O=C(O)c1ccc(NC(=O)C(CC2CC2C(F)F)c2ccc(-c3c(C(F)F)ccc(Cl)c3F)c[n+]2[O-])cc1 (single isomer, unassigned) [Example 89] 0.6

Query IC50 on UniProt:P03951 for CC1CCC1CC(C(=O)Nc1ccc(C(=O)O)cc1)c1ccc(-c2c(OC(F)F)ccc(Cl)c2F)c[n+]1[O-] (single isomer, unassigned) [Example 104] 1000

* * *

assay: Rat Pharmacokinetic Screening IV/PO; assay type: in vivo; conditions: male, plasma, oral bioavailability, oral vs. IV dosing
Readout: bioavailability (%)
# value in %; strip the unit string

Quick one: bioavailability for C[C@H]1C[C@@H]1C[C@@H](C(=O)Nc1ccc(C(=O)O)cc1)c1ccc(-c2c(OC(F)F)ccc(Cl)c2F)c[n+]1[O-] (single isomer, unassigned) ? 63

Quick one: bioavailability for O=C(O)c1ccc(NC(=O)[C@H](CC2CC2)c2ccc(-c3c(OC(F)F)ccc(Cl)c3F)c[n+]2[O-])cc1 (single isomer, unassigned) ? 56

Quick one: bioavailability for O=C(O)c1ccc(NC(=O)C(CC2CC2(F)F)c2ccc(-c3c(C(F)F)ccc(Cl)c3F)c[n+]2[O-])cc1 (single isomer, unassigned) ? 70

Quick one: bioavailability for O=C(O)c1ccc(NC(=O)[C@H](CC2CCC2)c2ccc(-c3c(C(F)F)ccc(Cl)c3F)c[n+]2[O-])cc1 (mixture of isomers) ? 34

Quick one: bioavailability for O=C(O)c1ccc(NC(=O)[C@H](CC2CC2)c2ccc(-c3c(C(F)F)ccc(Cl)c3F)c[n+]2[O-])cc1 (mixture of isomers) ? 89

* * *

Below are compounds with their IC50 as measured on human Factor XIa (Homo sapiens (Human), UniProt P03951).
Sequence (P03951 388-625): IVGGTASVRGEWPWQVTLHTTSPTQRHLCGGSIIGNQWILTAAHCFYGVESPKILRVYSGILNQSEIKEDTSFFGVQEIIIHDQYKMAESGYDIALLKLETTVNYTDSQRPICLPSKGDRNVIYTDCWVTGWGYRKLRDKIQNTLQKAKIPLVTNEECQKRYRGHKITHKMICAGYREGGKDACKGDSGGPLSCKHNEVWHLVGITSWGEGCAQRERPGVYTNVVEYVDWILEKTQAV
Sequence (P03951 19-387 partner): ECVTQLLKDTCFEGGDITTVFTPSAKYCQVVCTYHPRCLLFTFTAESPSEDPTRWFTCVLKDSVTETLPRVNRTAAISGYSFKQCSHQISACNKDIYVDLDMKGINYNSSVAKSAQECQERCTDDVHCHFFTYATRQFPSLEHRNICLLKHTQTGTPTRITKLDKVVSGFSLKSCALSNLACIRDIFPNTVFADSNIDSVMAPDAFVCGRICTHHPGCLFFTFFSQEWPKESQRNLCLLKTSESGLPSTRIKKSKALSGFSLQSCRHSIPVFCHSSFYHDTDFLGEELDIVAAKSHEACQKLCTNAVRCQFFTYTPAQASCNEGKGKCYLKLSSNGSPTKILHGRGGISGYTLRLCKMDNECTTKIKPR
# value in nM; strip the unit string

Query IC50 on human Factor XIa (Homo sapiens (Human), UniProt P03951) for O=C(O)c1ccc(NC(=O)C(CC2CC(F)C2)c2ccc(-c3c(C(F)F)ccc(Cl)c3F)c[n+]2[O-])cc1 (single isomer, unassigned) [Example 81] 1.2

Query IC50 on human Factor XIa (Homo sapiens (Human), UniProt P03951) for C[C@]1(O)CC[C@H](CC(C(=O)Nc2ccc(C(=O)O)cc2)c2ccc(-c3c(C(F)F)ccc(Cl)c3F)c[n+]2[O-])CC1 (single isomer, unassigned) [Example 46] 128

Query IC50 on human Factor XIa (Homo sapiens (Human), UniProt P03951) for O=C(O)c1ccc(NC(=O)[C@@H](CC2CCC2)c2ccc(-c3c(C(F)F)ccc(Cl)c3F)c[n+]2[O-])cc1 (mixture of isomers) [Example 3] 39

Query IC50 on human Factor XIa (Homo sapiens (Human), UniProt P03951) for CC1CC(CC(C(=O)Nc2ccc(C(=O)O)cc2)c2ccc(-c3c(C(F)(F)F)ccc(Cl)c3F)c[n+]2[O-])C1 (single isomer, unassigned) [Example 75] 3.3

* * *

Exercise: state measured IC50 for each of the compounds provided.
# value in nM; strip the unit string

Query IC50 on human Factor XIa (Homo sapiens (Human)) for O=C(O)c1ccc(NC(=O)C(CC23CC(C2)C3)c2ccc(-c3c(C(F)F)ccc(Cl)c3F)c[n+]2[O-])cc1F (single isomer, unassigned) [Example 123] 24.7

Query IC50 on human Factor XIa (Homo sapiens (Human)) for O=C(O)c1ccc(NC(=O)C(C[C@H]2CC[C@H](O)CC2)c2ccc(-c3c(C(F)F)ccc(Cl)c3F)c[n+]2[O-])cc1 (single isomer, unassigned) [Example 37] 0.33

Query IC50 on human Factor XIa (Homo sapiens (Human)) for N#CC1(CC(C(=O)Nc2ccc(C(=O)O)cc2)c2ccc(-c3c(C(F)F)ccc(Cl)c3F)c[n+]2[O-])CC1 (racemic) [Example 31] 3

Query IC50 on human Factor XIa (Homo sapiens (Human)) for COc1ccc(Cl)c(F)c1-c1ccc(C(CC2CC2)C(=O)Nc2ccc(C(=O)O)cc2)[n+]([O-])c1 (single isomer, unassigned) [Example 11] 36

Query IC50 on human Factor XIa (Homo sapiens (Human)) for COC(=O)c1ccc(NC(=O)C(CC2CCC2)c2ccc(-c3c(C(F)F)ccc(Cl)c3F)c[n+]2[O-])cc1 (single isomer, unassigned) [Example 21] 83

Query IC50 on human Factor XIa (Homo sapiens (Human)) for O=C(O)c1ccc(NC(=O)C(CC2CCC2)c2ccc(-c3c(OC(F)F)ccc(Cl)c3F)c[n+]2[O-])cc1 (single isomer, unassigned) [Example 14] 47

* * *

assay: Rat Pharmacokinetic Screening IV/PO; assay type: in vivo; conditions: male, plasma, mean residence time
Readout: MRT (h)
# value in h; strip the unit string

Quick one: MRT for C[C@H]1C[C@@H]1C[C@@H](C(=O)Nc1ccc(C(=O)O)cc1)c1ccc(-c2c(OC(F)F)ccc(Cl)c2F)c[n+]1[O-] (single isomer, unassigned) ? 2.6

Quick one: MRT for O=C(O)c1ccc(NC(=O)[C@H](CC2CC2)c2ccc(-c3c(OC(F)F)ccc(Cl)c3F)c[n+]2[O-])cc1 (single isomer, unassigned) ? 2.5

Quick one: MRT for O=C(O)c1ccc(NC(=O)[C@H](CC2CCC2)c2ccc(-c3c(C(F)F)ccc(Cl)c3F)c[n+]2[O-])cc1 (mixture of isomers) ? 2.5

Quick one: MRT for O=C(O)c1ccc(NC(=O)[C@H](CC2CC2)c2ccc(-c3c(C(F)F)ccc(Cl)c3F)c[n+]2[O-])cc1 (mixture of isomers) ? 2.9

Quick one: MRT for O=C(O)c1ccc(NC(=O)C(CC2CC2(F)F)c2ccc(-c3c(C(F)F)ccc(Cl)c3F)c[n+]2[O-])cc1 (single isomer, unassigned) ? 2.3
